Please find below pIC50 data on Steroid 17-alpha-hydroxylase/17,20 lyase (Homo sapiens, UniProt P05093) compiled from the literature.
Sequence (P05093 whole entry): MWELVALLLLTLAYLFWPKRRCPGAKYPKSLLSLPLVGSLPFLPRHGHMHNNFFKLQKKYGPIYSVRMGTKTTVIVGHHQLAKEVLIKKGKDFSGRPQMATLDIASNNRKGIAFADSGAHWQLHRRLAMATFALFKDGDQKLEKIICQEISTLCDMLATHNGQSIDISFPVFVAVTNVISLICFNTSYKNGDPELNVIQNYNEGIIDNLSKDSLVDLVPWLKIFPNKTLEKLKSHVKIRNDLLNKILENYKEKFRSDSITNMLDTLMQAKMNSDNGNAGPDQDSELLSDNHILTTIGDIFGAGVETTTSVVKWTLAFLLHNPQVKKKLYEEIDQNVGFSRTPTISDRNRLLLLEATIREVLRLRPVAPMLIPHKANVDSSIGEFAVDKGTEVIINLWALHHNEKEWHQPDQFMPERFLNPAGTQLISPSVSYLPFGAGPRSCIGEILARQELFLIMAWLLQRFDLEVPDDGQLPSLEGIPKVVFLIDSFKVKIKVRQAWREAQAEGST
One number for each entry, as −log10 of the molar value.

[
  {
    "molecule": "CC(C)C(O)(c1ccc2c3c(ccc2c1)C(=O)NC3)c1c[nH]cn1 (racemic)",
    "tgt": "Steroid 17-alpha-hydroxylase/17,20 lyase (Homo sapiens, UniProt P05093)",
    "pIC50": 7.74
  }
]

Batch lookup, pIC50 per entry.
1. CCNC(=O)c1ccc2cc(C(O)(c3c[nH]cn3)C(C)C)ccc2c1 (racemic)
2. Nc1cccc(-c2ccc(Cc3ccncc3)cc2)c1

1: 7.34; 2: 6.65

Please give pIC50 for each item listed below.
1. CCC(c1ccncc1)c1ccc(-c2cccc(O)c2)cc1 (stereo not drawn)
2. Oc1ccc(-c2ccc(Cc3ccncc3)cc2)cc1F
3. CCC(c1ccc(-c2ccsc2)cc1)n1ccnc1 (stereo not drawn)
4. CC(C)=C(c1ccncc1)c1ccc(-c2ccc3cc(O)ccc3c2)cc1
5. COc1ccc(-c2ccc(C(O)(c3c[nH]cn3)C(C)C)cc2)cc1 (racemic)
6. CC(=O)Nc1cccc(-c2ccc(C(O)c3cnc[nH]3)cc2)c1 (racemic)
7. C[C@]12CC[C@H](O)CC1=CC[C@@H]1[C@@H]2CC[C@]2(C)C(c3ncc[nH]3)=CC[C@@H]12

6.72
6.73
6.43
7.21
7.27
7.11
7.68

Quick one: give me pIC50 for each item below, same order please.
1. C[C@]12CCC3C(CC=C4C[C@@H](O)CC[C@@]43C)C1CCC2c1ccncc1 (single isomer, unassigned)
2. CC[C@@](O)(c1ccc(-c2cccc(NC(C)=O)c2)cc1)c1c[nH]cn1
3. CCC(c1ccncc1)c1ccc(-c2ccc(O)c(F)c2)cc1 (stereo not drawn)

1. 7.57
2. 6.62
3. 6.46
